# measured.target: T1, human Klotho β (human, UniProt Q86Z14 1-1044)
# T1 sequence (looked up): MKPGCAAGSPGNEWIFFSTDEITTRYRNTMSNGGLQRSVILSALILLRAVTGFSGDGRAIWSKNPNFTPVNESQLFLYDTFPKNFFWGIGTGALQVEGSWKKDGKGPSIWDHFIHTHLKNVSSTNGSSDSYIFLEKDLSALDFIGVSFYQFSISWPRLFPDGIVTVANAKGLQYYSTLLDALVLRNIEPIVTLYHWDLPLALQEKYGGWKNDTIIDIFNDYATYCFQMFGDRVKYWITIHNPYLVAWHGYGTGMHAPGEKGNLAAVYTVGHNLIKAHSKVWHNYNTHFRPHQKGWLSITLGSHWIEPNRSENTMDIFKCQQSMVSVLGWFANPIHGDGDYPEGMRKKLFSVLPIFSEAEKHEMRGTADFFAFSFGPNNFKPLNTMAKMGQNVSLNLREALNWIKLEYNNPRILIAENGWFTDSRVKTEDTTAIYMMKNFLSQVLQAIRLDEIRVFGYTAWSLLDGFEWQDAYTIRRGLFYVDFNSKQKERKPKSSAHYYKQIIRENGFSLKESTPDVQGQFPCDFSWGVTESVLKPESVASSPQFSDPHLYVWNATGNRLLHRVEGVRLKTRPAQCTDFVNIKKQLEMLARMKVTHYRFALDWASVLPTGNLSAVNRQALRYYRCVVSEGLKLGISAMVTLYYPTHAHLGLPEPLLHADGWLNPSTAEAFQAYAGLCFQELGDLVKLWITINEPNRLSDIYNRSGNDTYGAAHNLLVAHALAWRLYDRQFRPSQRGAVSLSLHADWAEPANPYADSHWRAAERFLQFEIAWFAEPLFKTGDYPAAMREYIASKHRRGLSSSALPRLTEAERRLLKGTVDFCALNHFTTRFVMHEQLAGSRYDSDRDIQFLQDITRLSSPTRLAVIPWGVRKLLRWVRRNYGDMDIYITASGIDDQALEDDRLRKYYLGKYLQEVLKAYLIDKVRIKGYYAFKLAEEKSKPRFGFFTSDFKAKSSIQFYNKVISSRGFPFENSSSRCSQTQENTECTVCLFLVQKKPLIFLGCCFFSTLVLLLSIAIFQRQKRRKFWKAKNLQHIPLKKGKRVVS
# method.summary: cell-based or functional assay
No end group written: not given here.
quantity: % max activity of antagonism of FGF21 (pErk1/2, 293 HEK hKLB cells) (%)

{"binder": "PPDVGSSDPLSMVGPSQGRSPSYAS-NH2 [FGF21 157-181]", "readout.units": "%", "measurement": 100}
{"binder": "PPDVGSSDPLSMAGPSQGRSPSYAS [FGF21 25mer A13]", "readout.units": "%", "measurement": 87.9}
{"binder": "PPDVGASDPLSMVGPSQGRSPSYAS [FGF21 25mer A6]", "readout.units": "%", "measurement": 89.2}
{"binder": "PPDVGSADPLSMVGPSQGRSPSYAS [FGF21 25mer A7]", "readout.units": "%", "measurement": 94.5}
{"binder": "PPDVGSSDPLSMVGPAQGRSPSYAS [FGF21 25mer A16]", "readout.units": "%", "measurement": 101}
{"binder": "PPDVGSSDPLSMVGPSQGRSPAYAS [FGF21 25mer A22]", "readout.units": "%", "measurement": 78.5}
{"binder": "PPDVGSSDPLSMVGPSQGRSPSAAS [FGF21 25mer A23]", "readout.units": "%", "measurement": 73.6}

Numbers sourced from patent US20190142963A1.
